- targetOrTestSystem: recombinant human tyrosinase (Homo sapiens, UniProt P14679)
- Sequence (P14679 19-476 limits assumed): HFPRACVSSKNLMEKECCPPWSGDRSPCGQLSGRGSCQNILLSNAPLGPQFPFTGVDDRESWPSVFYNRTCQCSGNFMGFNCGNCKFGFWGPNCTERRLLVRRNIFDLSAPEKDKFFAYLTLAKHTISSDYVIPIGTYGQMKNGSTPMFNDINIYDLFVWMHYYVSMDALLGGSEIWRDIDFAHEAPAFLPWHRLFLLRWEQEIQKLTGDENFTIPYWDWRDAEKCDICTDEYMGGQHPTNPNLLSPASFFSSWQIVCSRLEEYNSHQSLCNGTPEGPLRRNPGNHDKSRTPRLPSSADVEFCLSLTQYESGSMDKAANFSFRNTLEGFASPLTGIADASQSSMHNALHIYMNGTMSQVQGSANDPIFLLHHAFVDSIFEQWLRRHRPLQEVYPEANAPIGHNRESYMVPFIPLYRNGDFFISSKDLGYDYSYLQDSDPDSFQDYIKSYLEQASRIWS
- assayOverview: biochemical
readoutName: IC50 (µM)

smilesData: CCCCc1ccc(O)cc1O
unitInfo: µM
recordedNumber: 13
--
smilesData: CCCCCCc1ccc(O)cc1O
unitInfo: µM
recordedNumber: 16
